Kindly state EC50 for each of the entries shown.
assayed-target: human platelet heparanase (Homo sapiens)
Construct: 10 ng of purified human platelet heparanase; from tissue; host or cells: human platelets
Sequence (Q9Y251 158-543 limits assumed): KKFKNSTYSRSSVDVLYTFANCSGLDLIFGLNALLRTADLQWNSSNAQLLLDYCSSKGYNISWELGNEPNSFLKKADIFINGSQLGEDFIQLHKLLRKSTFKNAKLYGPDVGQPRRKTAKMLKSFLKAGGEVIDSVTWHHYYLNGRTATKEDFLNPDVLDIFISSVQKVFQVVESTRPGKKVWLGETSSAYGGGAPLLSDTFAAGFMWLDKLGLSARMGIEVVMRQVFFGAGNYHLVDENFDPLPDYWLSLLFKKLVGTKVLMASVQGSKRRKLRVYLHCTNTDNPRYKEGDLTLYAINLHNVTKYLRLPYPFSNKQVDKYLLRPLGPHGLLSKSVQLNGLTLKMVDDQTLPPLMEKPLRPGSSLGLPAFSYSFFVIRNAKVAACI
Sequence (Q9Y251 36-109 limits assumed): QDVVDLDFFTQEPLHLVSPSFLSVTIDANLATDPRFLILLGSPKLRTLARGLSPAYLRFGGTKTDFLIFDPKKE
protocol-notes: Heparanase inhibition, 3H-radiolabelled HS cleavage assay
Assay type: biochemical
test-parameters: heparanase inhibition
# include the unit after the value

stdin: Item O=S(=O)(O)OC1C=CC(N(Cc2cccc(CN(C3C=CC(OS(=O)(=O)O)C(OS(=O)(=O)O)C3OS(=O)(=O)O)C3C=CC(OS(=O)(=O)O)C(OS(=O)(=O)O)C3OS(=O)(=O)O)c2)C2C=CC(OS(=O)(=O)O)C(OS(=O)(=O)O)C2OS(=O)(=O)O)C(OS(=O)(=O)O)C1OS(=O)(=O)O (centres unmarked) with human platelet heparanase (Homo sapiens) - EC50?
stdout: 15 µg/mL

stdin: human platelet heparanase (Homo sapiens) / EC50 / O=S(=O)(O)OC1C=CC(N(CCCCCCN(C2C=CC(OS(=O)(=O)O)C(OS(=O)(=O)O)C2OS(=O)(=O)O)C2C=CC(OS(=O)(=O)O)C(OS(=O)(=O)O)C2OS(=O)(=O)O)C2C=CC(OS(=O)(=O)O)C(OS(=O)(=O)O)C2OS(=O)(=O)O)C(OS(=O)(=O)O)C1OS(=O)(=O)O (centres unmarked) : value?
stdout: 40 µg/mL

###

For each of the molecules below, state its Inhibition of binding of VEGF (Hep).
assayed-target: UniProt:P15692
Sequence (P15692 27-191 isoform P15692-4, species assumed): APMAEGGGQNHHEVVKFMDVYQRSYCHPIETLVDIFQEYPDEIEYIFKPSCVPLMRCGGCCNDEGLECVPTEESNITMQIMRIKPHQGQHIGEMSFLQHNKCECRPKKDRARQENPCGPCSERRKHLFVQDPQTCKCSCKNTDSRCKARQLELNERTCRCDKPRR
protocol-notes: Biacore biosensor: inhibition of VEGF binding to immobilised heparin and heparan sulfate
test-parameters: immobilised heparin; inhibitor 0.034 μM, VEGF 0.025 μM

stdin: Field request: Inhibition of binding of VEGF (Hep) | item: O=S(=O)(O)OC1C=CC(N(CCCCCCN(C2C=CC(OS(=O)(=O)O)C(OS(=O)(=O)O)C2OS(=O)(=O)O)C2C=CC(OS(=O)(=O)O)C(OS(=O)(=O)O)C2OS(=O)(=O)O)C2C=CC(OS(=O)(=O)O)C(OS(=O)(=O)O)C2OS(=O)(=O)O)C(OS(=O)(=O)O)C1OS(=O)(=O)O (centres unmarked)
stdout: 45% (Hep)

stdin: I'd like to know its Inhibition of binding of VEGF (Hep). The molecule in question is O=S(=O)(O)OC1C=CC(N(Cc2ccc(CN(C3C=CC(OS(=O)(=O)O)C(OS(=O)(=O)O)C3OS(=O)(=O)O)C3C=CC(OS(=O)(=O)O)C(OS(=O)(=O)O)C3OS(=O)(=O)O)cc2)C2C=CC(OS(=O)(=O)O)C(OS(=O)(=O)O)C2OS(=O)(=O)O)C(OS(=O)(=O)O)C1OS(=O)(=O)O (centres unmarked)
stdout: 63% (Hep)
